Test system: ovarian carcinoma cell line, A2780
PROTOCOL_SUMMARY: MTT cell viability assay, combinations of phytocannabinoids (Example 2)
Assay type: cell-based
CONDITION_SUMMARY: Homo sapiens, A2780, 72 h, Experiment A (CBD with or without 1 hour pre-treatment with THCV 1 μM), A2780 cells, 72 hours
I'd appreciate it if you could supply IC50 values for the items below.

1) C=C(C)[C@@H]1CCC(C)=C[C@H]1c1c(O)cc(CCCCC)cc1O :: 5.87 µM

Kindly consider the entry below.
Request: Request - read-out IC50 | tested on ovarian carcinoma cell line, A2780 | compound CCCc1cc(O)c2c(c1)OC(C)(C)[C@@H]1CCC(C)=C[C@@H]21 [THCV, Tetrahydrocannabivarin]
Result: 14.8 µM

Just for reference, patent US10098867B2 is where these values come from.
